system: KAT-5 (Homo sapiens (Human), UniProt Q92993)
Sequence (Q92993 other isoform, or with tags, fused parts or gaps): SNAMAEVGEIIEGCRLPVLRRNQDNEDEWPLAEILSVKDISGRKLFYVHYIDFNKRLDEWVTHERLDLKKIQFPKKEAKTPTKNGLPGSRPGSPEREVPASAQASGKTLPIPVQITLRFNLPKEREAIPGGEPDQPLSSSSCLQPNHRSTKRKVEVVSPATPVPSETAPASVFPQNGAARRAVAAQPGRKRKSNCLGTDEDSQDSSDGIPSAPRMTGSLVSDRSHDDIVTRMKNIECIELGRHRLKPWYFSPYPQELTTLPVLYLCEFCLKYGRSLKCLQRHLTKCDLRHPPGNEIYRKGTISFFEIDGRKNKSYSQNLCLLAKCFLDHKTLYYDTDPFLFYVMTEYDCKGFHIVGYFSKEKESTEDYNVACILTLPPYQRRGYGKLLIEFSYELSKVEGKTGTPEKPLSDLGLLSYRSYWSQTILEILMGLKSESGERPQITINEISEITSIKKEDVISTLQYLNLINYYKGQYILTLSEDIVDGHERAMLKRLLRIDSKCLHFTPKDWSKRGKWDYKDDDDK
test-protocol: KAT-5 biochemical inhibition assay (SAMDI mass spectrometry)
assay-endpoint: IC50

In [3]: df
Out[3]:
                                   compound  assay_endpoint       result
0  CCCS(=O)(=O)N1CC(CS(=O)(=O)NNC(=O)c2cc(-c3cn(C)cn3)cc(Cl)c2F)C1 [Compound I-178]            IC50  10 to 50 µM

With those in mind, consider the next compound.
Q) Please give the measured IC50 for this compound: Cn1cnc(-c2cc(Cl)c(F)c(C(=O)NNS(=O)(=O)C[C@@H]3CCNC3)c2)c1 [Compound I-120]
A) 10 to 50 µM
